# assayInfo: gradient 5% acetonitrile 3 min, to 50% in 2 min, to 85% in 15 min, held 3 min, 100 µL/min
# measurementSetup: column: Zorbax Extend-C18 2.1 x 50 mm; eluents: water / acetonitrile, 0.1% formic acid
endpointLabel: RP-LC retention time (s)

* Cc1cccc(OCc2nc(-c3ccc(NS(C)(=O)=O)cc3)no2)c1 | 801
* COc1cccc(-c2noc(CN3C(=O)COc4ccc(Cl)cc43)n2)c1 | 1070
* CCc1ccccc1NC(=O)CSc1nc2nc(C)cc(C)n2n1 | 732
* Cc1cccc(CNC(=O)C2c3ccccc3CC(=O)N2C)c1 (stereo not given) | 748
* CC(C)(C)NC(=O)C(=O)c1c(-c2ccccc2)cc2ccccn12 | 948
* Cc1cc(=O)n(CC(=O)Nc2ccc(F)c(Cl)c2)c(N2CCOCC2)n1 | 677
* COc1ccc(-c2noc(CN3N=NC4C(=O)N(c5ccc6c(c5)CCC6)C(=O)C43)n2)cc1OC (stereo not given) | 949
* Cc1ccc(N2CCC(NC(=O)NC(C)(C)C)C2=O)cc1 (stereo not given) | 761
* COCCNC(=O)C1CCCN(S(=O)(=O)c2cc(OC)ccc2OC)C1 (stereo not given) | 687
* CCOCCCNC(=O)c1ccc(OCc2nnc(C(=O)Nc3ccccc3F)s2)cc1 | 853
